# credit: the supplement of paper PMC11908140

B1: library; numbered along this chain (parent)
chain: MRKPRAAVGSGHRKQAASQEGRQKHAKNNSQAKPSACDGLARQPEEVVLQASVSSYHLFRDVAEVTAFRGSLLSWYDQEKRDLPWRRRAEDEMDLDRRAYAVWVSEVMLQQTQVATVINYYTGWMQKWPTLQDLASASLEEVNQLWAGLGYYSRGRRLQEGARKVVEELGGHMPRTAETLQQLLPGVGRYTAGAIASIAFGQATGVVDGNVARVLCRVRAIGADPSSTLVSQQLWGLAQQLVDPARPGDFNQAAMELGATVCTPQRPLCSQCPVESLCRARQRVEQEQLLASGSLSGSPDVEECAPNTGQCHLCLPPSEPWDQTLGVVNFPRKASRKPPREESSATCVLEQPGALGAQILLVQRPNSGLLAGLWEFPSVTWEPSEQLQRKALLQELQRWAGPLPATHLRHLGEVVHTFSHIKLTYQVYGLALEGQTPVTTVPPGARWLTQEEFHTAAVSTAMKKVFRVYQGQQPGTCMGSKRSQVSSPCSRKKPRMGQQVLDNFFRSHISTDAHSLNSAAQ

Variants of: B1
Assay: 8OG:A repair function score (normalized; synonymous = 0, nonsense = -1) (normalized log-likelihood score); higher = more repair activity (WT-like);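 further: cells sorted at 72 h after reporter transfection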
Details: with 8OG:A DNA repair reporter (GFP) in HEK-293 MUTYH KO cells
Tick fulfilled if 8OG:A repair function score is -0.2 or greater. Tick not fulfilled if 8OG:A repair function score is less than -0.2.

Some entries whose results are on file:
{"MUTATION LIST": "C314L", "GROUP LABEL": "not fulfilled"}
{"MUTATION LIST": "Q233R", "GROUP LABEL": "fulfilled"}
{"MUTATION LIST": "R97Y", "GROUP LABEL": "fulfilled"}
{"MUTATION LIST": "K164G", "GROUP LABEL": "not fulfilled"}
{"MUTATION LIST": "A177V", "GROUP LABEL": "not fulfilled"}
{"MUTATION LIST": "Q472L", "GROUP LABEL": "fulfilled"}
{"MUTATION LIST": "T449G", "GROUP LABEL": "fulfilled"}
{"MUTATION LIST": "E168V", "GROUP LABEL": "fulfilled"}
{"MUTATION LIST": "G201D", "GROUP LABEL": "fulfilled"}
{"MUTATION LIST": "H312D", "GROUP LABEL": "fulfilled"}

### Prompt Check the entry Q240L : does 8OG:A repair function score equal or exceed -0.2?
### Response not fulfilled

### Prompt Here is the next variant: R97L
### Response fulfilled

### Prompt Here is the next variant: A51K
### Response fulfilled
